- Assayed system: UniProtKB O60885
- Assay: Time Resolved Fluorescence Resonance Energy Transfer (TR-FRET) binding assay, BRD4
- Condition notes: one of the FRET assays described; read-out: FRET BRD4 IC50
Quantity measured: IC50

# Molecule, IC50
data = [
    ("Cc1nnn(C)c1-c1cnc2c3ccc(C(C)(O)C4CC4)c(F)c3n([C@H](c3ccccc3)C3CCOCC3)c2c1 (stereo partly drawn) [Example 416]", "< 5 nM"),
]

Provide reported IC50 for each item, in the same order as listed.
1. Cc1nnn(C)c1-c1cnc2c3ccc(C(C)(C)O)cc3n(C(c3c(F)cc(F)cc3F)C3CCOCC3)c2c1 (single isomer, unassigned) [Example 103]
2. COc1cc2c3ncc(-c4c(C)nnn4C)cc3n([C@H](c3ccc(F)cc3)C3CCOCC3)c2cc1C(C)(C)O [Example 353]
3. Cc1cc(C(C2CCOCC2)n2c3cc(C(C)(C)O)ccc3c3ncc(-c4c(C)nnn4C)cc32)n(C)n1 (single isomer, unassigned) [Example 341]
4. Cc1nnn(C)c1-c1cnc2c3ccc(C(C)(C)O)cc3n(C(c3cccc(F)c3)C3CCOCC3)c2c1 (single isomer, unassigned) [Example 101]
5. Cn1nncc1-c1cnc2c3ccc(S(C)(=O)=O)cc3n([C@H](c3ccccc3)C3CCOCC3)c2c1 [Example 453]

Reply:
< 5 nM
< 5 nM
< 5 nM
< 25 nM
< 5 nM

----------
- Assayed system: BRD4 (Homo sapiens)
- Assay: Time Resolved Fluorescence Resonance Energy Transfer (TR-FRET) binding assay, BRD4
- Condition notes: one of the FRET assays described; read-out: FRET BRD4 IC50
pIC50: −log10 of the molar value.
For each of the molecules below, state its pIC50.

Here are 2 molecules together with their reported answers.
# Molecule, Assayed system, Recorded value
rows = [
    ("[2H]C([2H])([2H])c1nnn(C)c1-c1cnc2c3cc(F)c(C(C)(C)O)cc3n(C(c3cc(OC)ccn3)C3CCOCC3)c2c1 (single isomer, unassigned) [Example 326]", "BRD4 (Homo sapiens)", "> 7.60"),
    ("Cc1noc(C)c1-c1cnc2c3ccc(C(C)(C)O)cc3n([C@H](c3ccc(F)cc3)C3CCC3)c2c1", "BRD4 (Homo sapiens)", "> 8.30"),
]

Provide reported pIC50 for each item, in the same order as listed.
1. Cc1noc(C)c1-c1cnc2c3ccc(C(C)(C)O)cc3n(C(c3ccccc3)c3cscn3)c2c1 (single isomer, unassigned) [Example 30]
2. Cc1nnn(C)c1-c1cnc2c3ccc(C(C)(C)O)cc3n([C@@H](c3ccccc3F)C3CCOCC3)c2c1 [Example 77]
3. Cc1nnn(C)c1-c1cnc2c3ccc(C(C)(C)N)cc3n(C(c3ccccc3)C3CCOCC3)c2c1 (single isomer, unassigned) [Example 166]
4. Cc1nnn(C)c1-c1cnc2c3ccc(C(C)(C)O)c(F)c3n(C(c3ncccc3F)C3CCOCC3)c2c1 (single isomer, unassigned)
5. Cc1nocc1-c1cnc2c3ccc(C(C)(C)O)cc3n(C(c3ccc(F)cc3)C3CCOCC3)c2c1 (single isomer, unassigned) [Example 43]
6. Cc1nnn(C)c1-c1cnc2c3c(S(C)(=O)=O)cccc3n(C(CCC(F)(F)F)c3ccccn3)c2c1 (single isomer, unassigned)
7. Cc1nnn(C)c1-c1cnc2c3ccc(C(C)(C)O)cc3n(C(c3cccc(F)c3F)C3CCOCC3)c2c1 (single isomer, unassigned) [Example 95]
8. Cc1nnn(C)c1-c1cnc2c3cccc(S(C)(=O)=O)c3n([C@@H](CCC(F)(F)F)c3ccccc3)c2c1

Reply:
["> 8.30", "> 8.30", "> 8.30", "> 8.30", "> 5.82", "> 8.30", "> 8.30", "> 8.30"]

Provide reported pIC50 for each item, in the same order as listed.
1. Cc1noc(C)c1-c1cnc2c3ccc(C(C)(C)O)cc3n([C@H](c3ccc(F)cc3)C3CCOC(C)(C)C3)c2c1 (stereo partly shown)
2. Cc1noc(C)c1-c1cnc2c3ccc(C(=O)O)cc3n(C(c3ccccc3)c3ccccc3)c2c1
3. Cc1noc(C)c1-c1cnc2c3ccc(C(C)(C)O)cc3n([C@H](c3ccccc3)C3CC3)c2c1

Reply:
1: > 7.60; 2: > 8.30; 3: > 7.60

----------
- Assayed system: BRD4 (Homo sapiens, UniProt O60885)
- Assay: Time Resolved Fluorescence Resonance Energy Transfer (TR-FRET) binding assay, BRD4
- Condition notes: one of the FRET assays described; read-out: FRET BRD4 IC50
Quantity measured: IC50

# Compound, Recorded value
rows = [
    ("[2H]C([2H])([2H])c1nnn(C)c1-c1cnc2c3c(OC)cc(S(C)(=O)=O)cc3n(C(c3ncccc3F)C3CCOCC3)c2c1 (stereo not shown) [Example 208]", "< 5 nM"),
]

Provide reported IC50 for each item, in the same order as listed.
1. Cn1nnc(CO)c1-c1cnc2c3ccc(S(C)(=O)=O)cc3n([C@H](c3ccccc3)C3CCOCC3)c2c1
2. Cc1nnn(C)c1-c1cnc2c3c(S(C)(=O)=O)cc(F)c(F)c3n([C@H](c3ccccc3)C3CCOCC3)c2c1
3. Cc1nnn(C)c1-c1cnc2c3ccc(C(C)(C)O)cc3n(C(CC3CC3)C3CCOCC3)c2c1 (single isomer, unassigned) [Example 395]
4. Cc1nnn(C)c1-c1cnc2c3ccc(S(C)(=O)=O)cc3n(C(c3ccccc3)C3CCC(F)(F)CC3)c2c1 (single isomer, unassigned) [Example 157]
5. Cc1noc(C)c1-c1cnc2c3ccc(C(C)(C)O)cc3n([C@H](c3ccccc3)C3CCC3)c2c1

Reply:
< 5 nM
< 5 nM
< 5 nM
< 5 nM
< 5 nM

Provide reported IC50 for each item, in the same order as listed.
1. [2H]C([2H])([2H])Oc1nnn(C([2H])([2H])[2H])c1-c1cnc2c3ccc(C(C)(C)O)cc3n([C@H](c3ccccc3)C3CCOCC3)c2c1
2. Cc1noc(C)c1-c1cnc2c3ccc(C(C)(C)O)cc3n(C(c3ccccc3)C3CCC(F)(F)CC3)c2c1 (single isomer, unassigned) [Example 28]
3. Cc1noc(C)c1-c1cnc2c3ccc(C(C)(C)O)cc3n(C(c3cccc(F)c3)C3CCOCC3)c2c1 (single isomer, unassigned) [Example 148]
4. [2H]C([2H])([2H])c1nnn(C)c1-c1cnc2c3ccc(C(C)(C)O)cc3n(C(c3cc(Cl)ccn3)C3CCOCC3)c2c1 (single isomer, unassigned)
5. [2H]C([2H])([2H])c1nnn(C)c1-c1cnc2c3ccc(S(C)(=O)=O)cc3n(C(c3cc(C)on3)C3CCOCC3)c2c1 (stereo not shown) [Example 330]
6. [2H]C([2H])([2H])c1nnn(C)c1-c1cnc2c3c(N)ccc(S(C)(=O)=O)c3n([C@H](c3ccccc3)C3CCOCC3)c2c1
7. CC(=O)c1ccc2c3ncc(-c4c(C)nnn4C)cc3n([C@H](c3ccccc3)C3CCOCC3)c2c1

Reply:
["< 5 nM", "< 5 nM", "< 25 nM", "< 5 nM", "< 25 nM", "< 5 nM", "< 5 nM"]

----------
- Assayed system: BRD4 (Homo sapiens, UniProt O60885)
- Assay: Time Resolved Fluorescence Resonance Energy Transfer (TR-FRET) binding assay, BRD4
- Condition notes: one of the FRET assays described; read-out: FRET BRD4 IC50
pIC50: −log10 of the molar value.
Quantity measured: pIC50

Here are 5 molecules together with their reported answers.
# Molecule, pIC50
data = [
    ("[2H]C([2H])([2H])c1nnn(C)c1-c1cnc2c3ccc(C(C)(C)O)cc3n(C(c3cc(C)on3)C3CCOCC3)c2c1 (stereo not drawn) [Example 308]", "> 8.30"),
    ("Cc1noc(C)c1-c1cnc2c3ccc(C(C)(C)O)c(F)c3n(C(c3ccc(F)cc3)C3CCOCC3)c2c1 (single isomer, unassigned) [Example 80]", "> 7.60"),
    ("[2H]C([2H])([2H])c1nnn(C)c1-c1cnc2c3cc(F)c(C(C)(O)C4CC4)cc3n(C(c3cc(C)on3)C3CCOCC3)c2c1 (stereo not drawn)", "> 7.60"),
    ("[2H]C([2H])([2H])c1nnn(C)c1-c1cnc2c3c(OCC)cc(S(C)(=O)=O)cc3n(C(c3ccccc3)C3CCC(F)(F)CC3)c2c1 (stereo not drawn) [Example 210]", "> 8.30"),
    ("Cc1noc(C)c1-c1cnc2c3ccc(S(C)(=O)=O)cc3n(C(c3ccccc3)C3CCC(F)(F)CC3)c2c1 (single isomer, unassigned) [Example 154]", "> 7.60"),
]

Read the next record carefully.
Query: Given the molecule [2H]C([2H])([2H])c1nnn(C)c1-c1cnc2c3c(S(C)(=O)=O)cc(F)c(F)c3n([C@H](c3ccccc3)C3CCOCC3)c2c1 , write its reported pIC50.
Reply: > 8.30

----------
- Assayed system: BRD4 (Homo sapiens, UniProt O60885)
- Assay: Time Resolved Fluorescence Resonance Energy Transfer (TR-FRET) binding assay, BRD4
- Condition notes: FRET BRD4 IC50 (nM), one of the FRET assays described
Quantity measured: IC50

Here are 2 molecules together with their reported answers.
# Sample smiles, IC50
data = [
    ("Cn1nnc(Cl)c1-c1cnc2c3ccc(C(C)(C)O)cc3n([C@H](c3ccccc3)C3CCOCC3)c2c1", "< 5 nM"),
    ("Cn1nnc(Br)c1-c1cnc2c3ccc(C(C)(C)O)cc3n([C@H](c3ccccc3)C3CCOCC3)c2c1", "< 5 nM"),
]

Read the next record carefully.
Query: Please look at [2H]C([2H])([2H])c1onc(C)c1-c1cnc2c3ccc(C(C)(C)O)cc3n([C@H](c3ccc(F)cc3)C3CCOCC3)c2c1 and tell me its recorded IC50 on BRD4 (Homo sapiens, UniProt O60885).
Reply: < 5 nM

Ref: patent US10112941B2
